Source listed as PubChem BioAssay (NCI).

System: M19-MEL melanoma
Assay: NCI tumour cell line growth inhibition, 48 h
PARAMETER: TGI

Some entries whose results are on file:
>>> value_measured("CCc1cccc(C)c1NC(=O)CCc1nnc2s/c(=C\\c3cccc4ccccc34)c(=O)n12")
"> 100 µM"
>>> value_measured("Cc1cc(C)nc(/C(=N\\NC(N)=O)C(=O)Nc2nc3ccc(C)cc3s2)c1")
"> 100 µM"
>>> value_measured("CC1(C)C2CCC3(OCCO3)C1C(O)C2 (centres undefined)")
"> 100 µM"
>>> value_measured("C[S+](C)CC1OC(n2cnc3c(N)ncnc32)C(O)C1O (centres undefined)")
"> 225 µM"
>>> value_measured("COc1cccc(/C(Cl)=C(\\C=O)c2cccc(OC)c2)c1")
"29 µM"

Now turn to the next compound.
Provide the documented TGI with M19-MEL melanoma as the system for O=C(C#Cc1ccccc1)N1c2ccccc2CC1c1c[nH]c2ccccc12 (centres undefined) 43.1 µM
